Values were extracted from patent US8959984B2.

target: GAK (Homo sapiens); assay: binding to immobilized V16742 (IVA1/IVA2, HeLa lysate, MS); conditions: read-out: Kd Avg
Sequence (O14976 whole entry): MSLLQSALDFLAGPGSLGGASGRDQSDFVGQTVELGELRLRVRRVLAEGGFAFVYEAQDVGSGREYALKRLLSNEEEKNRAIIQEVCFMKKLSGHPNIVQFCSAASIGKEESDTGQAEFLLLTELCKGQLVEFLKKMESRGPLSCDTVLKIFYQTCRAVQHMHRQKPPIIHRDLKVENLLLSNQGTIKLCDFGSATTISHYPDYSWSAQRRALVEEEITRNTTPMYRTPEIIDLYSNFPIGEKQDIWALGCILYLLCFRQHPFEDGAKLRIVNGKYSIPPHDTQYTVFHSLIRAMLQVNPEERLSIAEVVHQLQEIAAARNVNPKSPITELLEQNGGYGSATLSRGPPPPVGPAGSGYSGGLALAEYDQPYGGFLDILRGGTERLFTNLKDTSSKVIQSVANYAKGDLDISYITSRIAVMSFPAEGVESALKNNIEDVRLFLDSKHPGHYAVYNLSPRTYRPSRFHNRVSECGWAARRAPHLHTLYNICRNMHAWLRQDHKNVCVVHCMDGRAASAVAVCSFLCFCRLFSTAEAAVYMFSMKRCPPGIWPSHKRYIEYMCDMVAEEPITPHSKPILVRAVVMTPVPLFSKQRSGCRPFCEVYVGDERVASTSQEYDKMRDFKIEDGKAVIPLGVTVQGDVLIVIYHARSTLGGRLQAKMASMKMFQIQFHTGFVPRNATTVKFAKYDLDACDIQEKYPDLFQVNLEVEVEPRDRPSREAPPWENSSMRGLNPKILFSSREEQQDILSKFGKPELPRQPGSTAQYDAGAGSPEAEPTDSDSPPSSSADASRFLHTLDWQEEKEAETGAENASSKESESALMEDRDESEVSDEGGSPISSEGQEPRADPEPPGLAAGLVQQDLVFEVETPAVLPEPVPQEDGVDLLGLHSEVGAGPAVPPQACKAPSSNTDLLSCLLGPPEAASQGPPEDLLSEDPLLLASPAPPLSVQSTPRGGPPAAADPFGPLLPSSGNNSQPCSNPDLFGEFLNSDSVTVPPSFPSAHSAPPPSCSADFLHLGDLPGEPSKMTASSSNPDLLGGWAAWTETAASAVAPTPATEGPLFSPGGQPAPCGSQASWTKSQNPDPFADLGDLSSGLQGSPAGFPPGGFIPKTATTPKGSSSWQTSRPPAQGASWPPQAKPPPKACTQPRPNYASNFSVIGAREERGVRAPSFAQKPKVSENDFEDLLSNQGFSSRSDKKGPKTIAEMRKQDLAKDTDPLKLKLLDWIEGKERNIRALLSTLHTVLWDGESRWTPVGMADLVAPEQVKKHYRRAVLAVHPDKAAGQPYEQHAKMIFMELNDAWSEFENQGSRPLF

entry smiles | endpoint unit | Kd
CC(C)n1c(=O)ccc2cnc(Nc3ccc(OCCN)cc3)nc21 | µM | 24.3

###

molecular target: GSK3B (Homo sapiens); assay: binding to immobilized V16742 (IVA1/IVA2, HeLa lysate, MS); conditions: read-out: Kd Avg
Sequence (P49841 whole entry): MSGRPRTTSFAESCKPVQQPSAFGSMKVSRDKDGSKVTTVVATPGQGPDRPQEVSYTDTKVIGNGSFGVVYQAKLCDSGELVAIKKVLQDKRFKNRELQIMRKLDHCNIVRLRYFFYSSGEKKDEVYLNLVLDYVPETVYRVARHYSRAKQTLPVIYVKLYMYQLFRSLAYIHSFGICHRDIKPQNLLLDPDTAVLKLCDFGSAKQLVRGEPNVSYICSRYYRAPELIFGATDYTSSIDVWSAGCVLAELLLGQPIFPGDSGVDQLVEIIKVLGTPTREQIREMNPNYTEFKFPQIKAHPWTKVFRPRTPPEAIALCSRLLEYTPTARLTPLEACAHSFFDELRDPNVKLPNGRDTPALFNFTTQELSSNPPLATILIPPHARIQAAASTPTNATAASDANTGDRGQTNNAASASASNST

molecule | Kd / µM
CC(C)n1c(=O)ccc2cnc(Nc3ccc(OCCN)cc3)nc21 [compound 16742] | 10

###

Molecular target: FN3KRP (IPI00099986) (Homo sapiens)
Construct: endogenous in cells
Sequence (Q9HA64 1-309): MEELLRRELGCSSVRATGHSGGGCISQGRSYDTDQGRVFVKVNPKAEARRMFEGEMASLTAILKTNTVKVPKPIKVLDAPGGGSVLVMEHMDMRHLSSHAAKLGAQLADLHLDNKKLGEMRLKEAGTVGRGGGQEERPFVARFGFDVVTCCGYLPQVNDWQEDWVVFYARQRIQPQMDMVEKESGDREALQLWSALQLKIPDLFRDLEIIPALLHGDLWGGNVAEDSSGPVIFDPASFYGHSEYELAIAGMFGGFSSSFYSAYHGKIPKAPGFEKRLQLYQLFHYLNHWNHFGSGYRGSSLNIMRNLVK
Assay: binding to VI16742 beads (HeLa lysate, SILAC MS)
Details: immobilized VI16742
From the text: In an alternative implementation of the chemical proteomic approach according to the invention, the broadly-selective pyrido[2,3-d]pyrimidine-based kinase inhibitor VI16742 has been used for affinity capture (FIG. 10a). […] As shown by gene ontology analysis, the corresponding molecular functions were highly over-represented in proteins specifically retained by the inhibitor resin (FIG. 10b).

entry smiles | endpoint unit | Ki
CC(C)n1c(=O)ccc2cnc(Nc3ccc(OCCN)cc3)nc21 | µM | 117

###

biological target: RIPK2 (Homo sapiens); experiment: binding to immobilized V16742 (IVA1/IVA2, HeLa lysate, MS); settings: read-out: Kd Avg
Sequence (O43353 whole entry): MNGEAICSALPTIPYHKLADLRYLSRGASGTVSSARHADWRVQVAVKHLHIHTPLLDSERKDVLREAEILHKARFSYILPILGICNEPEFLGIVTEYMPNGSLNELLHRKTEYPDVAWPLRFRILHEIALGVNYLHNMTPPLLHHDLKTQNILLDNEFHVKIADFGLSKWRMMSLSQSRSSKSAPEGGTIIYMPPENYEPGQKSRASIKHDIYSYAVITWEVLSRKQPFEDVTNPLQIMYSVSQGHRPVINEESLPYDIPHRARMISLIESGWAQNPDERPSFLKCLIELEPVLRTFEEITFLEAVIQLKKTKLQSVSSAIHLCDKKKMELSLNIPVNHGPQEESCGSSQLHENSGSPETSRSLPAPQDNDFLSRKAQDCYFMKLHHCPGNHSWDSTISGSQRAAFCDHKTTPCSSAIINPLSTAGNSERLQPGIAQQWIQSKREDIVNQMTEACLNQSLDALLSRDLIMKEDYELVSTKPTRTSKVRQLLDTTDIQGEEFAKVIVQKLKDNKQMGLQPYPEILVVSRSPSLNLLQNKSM

entry smiles | endpoint unit | Kd
CC(C)n1c(=O)ccc2cnc(Nc3ccc(OCCN)cc3)nc21 | µM | 11.9

###

biological target: hydroxyacyl Coenzyme A dehydrogenase, type II isoform 1 (Homo sapiens, UniProt Q99714); construct: endogenous in cells; host or cells: HeLa S3; assay: binding to immobilized V16742 (IVA1/IVA2, HeLa lysate, MS); conditions: Experiment 2, read-out: Kd

entry smiles | assay system | Kd / µM
CC(C)n1c(=O)ccc2cnc(Nc3ccc(OCCN)cc3)nc21 | hydroxyacyl Coenzyme A dehydrogenase, type II isoform 1 (Homo sapiens, UniProt Q99714) | 72.8

###

Target: PARVA (IPI00018963)
Assay: binding to VI16742 beads (HeLa lysate, SILAC MS)
Set-up: species or system human
Settings: immobilized VI16742
Description: In an alternative implementation of the chemical proteomic approach according to the invention, the broadly-selective pyrido[2,3-d]pyrimidine-based kinase inhibitor VI16742 has been used for affinity capture (FIG. 10a). […] As shown by gene ontology analysis, the corresponding molecular functions were highly over-represented in proteins specifically retained by the inhibitor resin (FIG. 10b).
pKi: −log10 of the molar value.

compound | assay system | pKi
CC(C)n1c(=O)ccc2cnc(Nc3ccc(OCCN)cc3)nc21 [V16742] | PARVA (IPI00018963) | 3.81

###

target: Sepiapterin reductase (Homo sapiens); assay: binding to immobilized V16742 (IVA1/IVA2, HeLa lysate, MS); conditions: Kd, Sepiapterin reductase; immobilized V16742
Sequence (P35270 whole entry): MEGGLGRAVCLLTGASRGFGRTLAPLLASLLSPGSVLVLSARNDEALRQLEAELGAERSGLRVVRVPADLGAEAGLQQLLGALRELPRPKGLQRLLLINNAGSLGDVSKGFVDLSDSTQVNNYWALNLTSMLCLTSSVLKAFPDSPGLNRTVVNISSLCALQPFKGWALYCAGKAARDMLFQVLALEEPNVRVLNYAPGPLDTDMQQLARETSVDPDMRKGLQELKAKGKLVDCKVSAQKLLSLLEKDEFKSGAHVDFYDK
value type: Kd (µM)

compound | endpoint unit | experimental result
CC(C)n1c(=O)ccc2cnc(Nc3ccc(OCCN)cc3)nc21 [V16742] | µM | 93

###

Target: TLK1 (Homo sapiens)
Construct: endogenous in cells; host or cells: HeLa S3
Sequence (Q9UKI8 1-766): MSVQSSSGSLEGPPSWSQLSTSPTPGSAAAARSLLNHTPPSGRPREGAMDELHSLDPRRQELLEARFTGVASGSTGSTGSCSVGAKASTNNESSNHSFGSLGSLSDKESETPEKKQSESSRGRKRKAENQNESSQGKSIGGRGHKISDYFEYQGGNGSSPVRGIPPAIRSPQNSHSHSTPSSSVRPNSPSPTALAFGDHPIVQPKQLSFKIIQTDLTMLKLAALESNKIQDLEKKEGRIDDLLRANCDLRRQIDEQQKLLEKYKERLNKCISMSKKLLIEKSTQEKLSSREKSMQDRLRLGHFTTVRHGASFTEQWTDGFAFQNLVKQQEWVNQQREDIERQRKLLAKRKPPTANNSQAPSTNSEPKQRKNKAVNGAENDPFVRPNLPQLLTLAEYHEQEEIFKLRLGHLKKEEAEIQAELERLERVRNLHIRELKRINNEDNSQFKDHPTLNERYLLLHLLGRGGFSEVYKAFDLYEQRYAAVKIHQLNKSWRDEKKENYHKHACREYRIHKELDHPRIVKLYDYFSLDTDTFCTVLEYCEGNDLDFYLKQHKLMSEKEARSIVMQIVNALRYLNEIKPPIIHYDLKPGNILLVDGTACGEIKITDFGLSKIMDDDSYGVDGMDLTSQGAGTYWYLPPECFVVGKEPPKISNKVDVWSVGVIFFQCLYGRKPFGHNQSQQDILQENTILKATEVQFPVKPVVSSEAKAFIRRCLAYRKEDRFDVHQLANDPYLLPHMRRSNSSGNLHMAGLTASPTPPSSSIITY
Test: binding to immobilized V16742 (IVA1/IVA2, HeLa lysate, MS)
Conditions: Experiment 2, read-out: Kd
pKd: −log10 of the molar value.
value type: pKd

entry smiles | assay system | experimental result
CC(C)n1c(=O)ccc2cnc(Nc3ccc(OCCN)cc3)nc21 | TLK1 (Homo sapiens) | 3.92

###

target: CDK4 (IPI00007811) (Homo sapiens); construct: endogenous in cells; test: binding to VI16742 beads (HeLa lysate, SILAC MS); conditions: immobilized VI16742
Sequence (P11802 whole entry): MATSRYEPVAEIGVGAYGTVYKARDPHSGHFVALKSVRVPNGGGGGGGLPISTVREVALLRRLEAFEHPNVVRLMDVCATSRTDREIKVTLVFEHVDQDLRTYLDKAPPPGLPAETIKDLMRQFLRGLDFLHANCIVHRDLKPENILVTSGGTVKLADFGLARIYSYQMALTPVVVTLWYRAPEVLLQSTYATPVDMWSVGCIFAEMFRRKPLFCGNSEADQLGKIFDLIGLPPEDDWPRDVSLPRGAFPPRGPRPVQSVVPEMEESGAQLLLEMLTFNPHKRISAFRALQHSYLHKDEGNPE

entry smiles | assay system | Ki
CC(C)n1c(=O)ccc2cnc(Nc3ccc(OCCN)cc3)nc21 | CDK4 (IPI00007811) (Homo sapiens) | 511 µM

###

molecular target: CK1e (Homo sapiens); assay: binding to immobilized V16742 (IVA1/IVA2, HeLa lysate, MS); conditions: Kd, CK1e; EXPERIMENT 1
pKd: −log10 of the molar value.

entry smiles | pKd
CC(C)n1c(=O)ccc2cnc(Nc3ccc(OCCN)cc3)nc21 | 4.79

###

biological target: YES (Homo sapiens, UniProt P07947); assay: binding to immobilized V16742 (IVA1/IVA2, HeLa lysate, MS); settings: EXPERIMENT 2, read-out: Kd
pKd: −log10 of the molar value.

entry smiles | pKd
CC(C)n1c(=O)ccc2cnc(Nc3ccc(OCCN)cc3)nc21 | 4.35

###

molecular target: TAO3 (TAOK3, IPI00410485) (Homo sapiens, UniProt Q9H2K8); construct: endogenous in cells; test: binding to VI16742 beads (HeLa lysate, SILAC MS); settings: immobilized VI16742
Sequence (Q9H2K8 whole entry): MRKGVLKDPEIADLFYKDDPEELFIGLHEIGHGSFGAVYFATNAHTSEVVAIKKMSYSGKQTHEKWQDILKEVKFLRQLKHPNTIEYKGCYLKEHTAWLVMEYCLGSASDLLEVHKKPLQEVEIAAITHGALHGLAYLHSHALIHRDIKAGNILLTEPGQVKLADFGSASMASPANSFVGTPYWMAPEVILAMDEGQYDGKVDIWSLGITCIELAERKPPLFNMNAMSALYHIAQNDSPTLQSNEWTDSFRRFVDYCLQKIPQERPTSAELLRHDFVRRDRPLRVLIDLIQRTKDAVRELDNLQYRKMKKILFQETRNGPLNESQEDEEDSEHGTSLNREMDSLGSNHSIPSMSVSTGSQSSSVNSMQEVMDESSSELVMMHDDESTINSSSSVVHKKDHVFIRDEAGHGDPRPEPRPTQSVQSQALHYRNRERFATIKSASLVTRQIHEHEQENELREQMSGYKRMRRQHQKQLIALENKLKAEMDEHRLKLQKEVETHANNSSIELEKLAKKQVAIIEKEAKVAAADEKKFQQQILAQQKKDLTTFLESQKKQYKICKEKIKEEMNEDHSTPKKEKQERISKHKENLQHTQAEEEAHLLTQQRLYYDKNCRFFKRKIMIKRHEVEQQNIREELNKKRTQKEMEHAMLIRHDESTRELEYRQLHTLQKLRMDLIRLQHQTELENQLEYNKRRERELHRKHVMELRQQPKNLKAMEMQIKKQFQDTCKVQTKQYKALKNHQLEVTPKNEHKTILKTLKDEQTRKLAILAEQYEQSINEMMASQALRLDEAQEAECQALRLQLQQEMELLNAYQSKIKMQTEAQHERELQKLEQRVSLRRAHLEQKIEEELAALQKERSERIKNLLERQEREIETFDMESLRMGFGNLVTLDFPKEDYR
pKi: −log10 of the molar value.
value type: pKi

entry smiles | experimental result
CC(C)n1c(=O)ccc2cnc(Nc3ccc(OCCN)cc3)nc21 | 3.93

###

target: MAP3K2 (Homo sapiens); construct: endogenous in cells; host or cells: HeLa S3; assay: binding to immobilized V16742 (IVA1/IVA2, HeLa lysate, MS); conditions: Experiment 2, read-out: Kd
Sequence (Q9Y2U5 whole entry): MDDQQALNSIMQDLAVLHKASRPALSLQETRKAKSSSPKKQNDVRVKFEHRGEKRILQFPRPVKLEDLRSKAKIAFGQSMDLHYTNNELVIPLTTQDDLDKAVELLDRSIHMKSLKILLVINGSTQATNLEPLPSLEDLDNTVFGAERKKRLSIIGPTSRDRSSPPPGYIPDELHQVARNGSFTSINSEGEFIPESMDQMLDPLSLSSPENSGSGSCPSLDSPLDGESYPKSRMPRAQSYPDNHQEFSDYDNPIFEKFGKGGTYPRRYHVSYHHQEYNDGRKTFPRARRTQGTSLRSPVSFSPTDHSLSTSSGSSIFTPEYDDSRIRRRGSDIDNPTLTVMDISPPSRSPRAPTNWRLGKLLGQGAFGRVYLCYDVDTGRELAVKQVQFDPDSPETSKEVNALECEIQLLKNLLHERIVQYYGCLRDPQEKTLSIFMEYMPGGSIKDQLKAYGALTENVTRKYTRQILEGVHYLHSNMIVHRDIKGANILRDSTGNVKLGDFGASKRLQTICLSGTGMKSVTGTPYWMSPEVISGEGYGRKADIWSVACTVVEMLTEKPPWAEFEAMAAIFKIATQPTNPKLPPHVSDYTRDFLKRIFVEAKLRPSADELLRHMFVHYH
pKd: −log10 of the molar value.

entry smiles | pKd
CC(C)n1c(=O)ccc2cnc(Nc3ccc(OCCN)cc3)nc21 | 4.26

###

target: NT5DC1 (IPI00177965) (Homo sapiens, UniProt Q5TFE4); construct: endogenous in cells; assay: binding to VI16742 beads (HeLa lysate, SILAC MS); details: immobilized VI16742
pKi: −log10 of the molar value.

molecule | pKi
CC(C)n1c(=O)ccc2cnc(Nc3ccc(OCCN)cc3)nc21 [V16742] | 4.02

###

target: SPR (Homo sapiens); experiment: binding to AX14596 beads (HeLa lysate, SILAC MS)
value type: Ki (µM)

compound | value type | experimental result
COc1cc2ncnc(Nc3ccc(F)c(Cl)c3)c2cc1OCCCN [AX14596] | Ki | 1860

###

target: NUDT12 (Homo sapiens); assay: binding to AX14596 beads (HeLa lysate, SILAC MS)
Sequence (Q9BQG2 whole entry): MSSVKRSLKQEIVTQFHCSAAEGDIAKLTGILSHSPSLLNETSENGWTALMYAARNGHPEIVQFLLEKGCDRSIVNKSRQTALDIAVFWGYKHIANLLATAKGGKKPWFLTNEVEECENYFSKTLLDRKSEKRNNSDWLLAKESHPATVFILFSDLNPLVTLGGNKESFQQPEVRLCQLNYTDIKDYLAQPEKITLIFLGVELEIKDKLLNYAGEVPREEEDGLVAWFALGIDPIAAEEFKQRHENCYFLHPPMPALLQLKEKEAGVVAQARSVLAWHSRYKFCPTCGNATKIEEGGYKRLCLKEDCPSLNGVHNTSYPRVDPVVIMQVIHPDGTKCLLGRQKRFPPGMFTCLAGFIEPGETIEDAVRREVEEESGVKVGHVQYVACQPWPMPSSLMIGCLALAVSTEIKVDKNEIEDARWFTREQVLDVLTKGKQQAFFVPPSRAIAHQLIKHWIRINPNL
pKi: −log10 of the molar value.

compound | pKi
COc1cc2ncnc(Nc3ccc(F)c(Cl)c3)c2cc1OCCCN [AX14596] | 4.79

###

Molecular target: SART3 (IPI00006025) (Homo sapiens)
Construct: endogenous in cells
Sequence (Q15020 1-963): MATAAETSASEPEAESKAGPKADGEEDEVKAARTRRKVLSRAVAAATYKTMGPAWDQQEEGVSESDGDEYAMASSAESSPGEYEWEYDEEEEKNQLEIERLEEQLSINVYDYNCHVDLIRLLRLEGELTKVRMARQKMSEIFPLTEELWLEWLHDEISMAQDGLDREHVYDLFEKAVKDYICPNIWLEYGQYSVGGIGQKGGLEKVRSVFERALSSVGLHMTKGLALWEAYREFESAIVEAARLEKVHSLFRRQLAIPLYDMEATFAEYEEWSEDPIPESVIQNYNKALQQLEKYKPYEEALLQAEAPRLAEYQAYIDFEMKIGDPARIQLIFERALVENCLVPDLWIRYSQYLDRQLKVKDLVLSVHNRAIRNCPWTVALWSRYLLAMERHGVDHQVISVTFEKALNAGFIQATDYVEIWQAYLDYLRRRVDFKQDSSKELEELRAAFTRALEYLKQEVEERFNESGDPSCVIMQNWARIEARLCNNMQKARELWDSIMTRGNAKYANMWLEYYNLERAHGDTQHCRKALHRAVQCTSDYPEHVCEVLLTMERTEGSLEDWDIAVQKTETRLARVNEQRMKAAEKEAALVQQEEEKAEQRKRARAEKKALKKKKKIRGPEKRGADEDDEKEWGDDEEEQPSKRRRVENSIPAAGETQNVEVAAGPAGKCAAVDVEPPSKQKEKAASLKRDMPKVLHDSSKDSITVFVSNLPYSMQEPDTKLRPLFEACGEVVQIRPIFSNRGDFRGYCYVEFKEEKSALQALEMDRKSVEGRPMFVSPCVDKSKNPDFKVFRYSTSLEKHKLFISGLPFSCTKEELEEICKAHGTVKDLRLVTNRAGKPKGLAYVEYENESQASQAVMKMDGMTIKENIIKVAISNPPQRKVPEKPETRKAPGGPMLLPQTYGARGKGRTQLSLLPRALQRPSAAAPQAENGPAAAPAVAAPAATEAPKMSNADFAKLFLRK
Test: binding to VI16742 beads (HeLa lysate, SILAC MS)
Details: immobilized VI16742

entry smiles | Ki, µM
CC(C)n1c(=O)ccc2cnc(Nc3ccc(OCCN)cc3)nc21 | 126
